Source of measurements: patent US20250154138A1

# TARGET_SYSTEM: human IL-17A / human IL-17RA (Homo sapiens (Human), UniProt Q16552)
# Sequence (Q16552 24-155): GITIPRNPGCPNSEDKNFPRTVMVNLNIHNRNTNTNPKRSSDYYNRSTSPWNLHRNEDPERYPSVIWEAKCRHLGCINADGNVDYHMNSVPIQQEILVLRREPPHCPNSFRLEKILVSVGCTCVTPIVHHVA
# ASSAY_OVERVIEW: Human IL-17A biochemical assay (HTRF, blocking of IL-17A binding to IL-17RA)
# ASSAY_CONTEXT: 0.4 nM IL-17A, 0.3 nM IL-17RA, max compound concentration 10 uM
ATTRIBUTE_MEASURED: IC50 (µM)
Return type: number; implicit unit µM.

Answered cases to consult:
# MOLECULE, IC50 (µM)
rows = [
    ("CNC(=O)C1(N2C[C@@H](C(C)C)NS2(=O)=O)Cc2ccc(NC(=O)[C@@H](NC(=O)c3ccnn3C)C3CCCCC3)cc2C1 (stereo partly shown)", 1.05),
    ("Cc1nonc1C(=O)N[C@H](C(=O)Nc1ccc2c(c1)CC(C(=O)NC1CC1(F)F)(N1C[C@@H](C(C)C)NC1=O)C2)C(C1CC1)C1CC1 (stereo partly shown)", 0.0347),
]

# input for lookup
INPUT: State its IC50 on human IL-17A / human IL-17RA (Homo sapiens (Human), UniProt Q16552): CCCC1CN(C2(C(=O)NC)Cc3ccc(NC(=O)[C@@H](NC(=O)c4ccnn4C)C4CCCCC4)cc3C2)C(=O)N1 (stereo partly shown)
OUTPUT: 0.36

* * *

# TARGET_SYSTEM: human IL-17A / human IL-17RA (Homo sapiens (Human))
# ASSAY_OVERVIEW: Human IL-17A biochemical assay (HTRF, blocking of IL-17A binding to IL-17RA)
# ASSAY_CONTEXT: 0.4 nM IL-17A, 0.3 nM IL-17RA, max compound concentration 10 uM
// returns 0 (no) unless IC50 is strictly below 0.08 µM, in which case 1 (yes)

Consider the worked cases shown below.
# COMPOUND, ANSWER_LABEL
rows = [
    ("Cc1nonc1C(=O)N[C@H](C(=O)Nc1ccc2c(c1)CC(c1cn3ccccc3n1)(N1CC3(CC3)CNC1=O)C2)C(C1CC1)C1CC1 (stereo partly drawn)", "1 (yes)"),
    ("Cc1nonc1C(=O)N[C@H](C(=O)Nc1ccc2c(c1)CC(C(=O)NCC(C)C1CCCCC1)(N1CC3(CC3)CNC1=O)C2)C1CCC(F)(F)CC1 (stereo partly drawn)", "0 (no)"),
    ("CNC(=O)C1(N2C[C@@H](C(C)C)NC2=O)Cc2ccc(NC(=O)[C@@H](NC(=O)c3ccnn3C)C3CCOCC3)cc2C1 (stereo partly drawn)", "0 (no)"),
    ("CNC(=O)C1(N2C[C@@H](C(C)C)NC2=O)Cc2ccc(NC(=O)[C@@H](NC(=O)c3ccnn3C)C3CCCCCC3)cc2C1 (stereo partly drawn)", "1 (yes)"),
    ("CC(C)[C@@H]1CN(C2(C(=O)NCC(F)(F)F)Cc3ccc(NC(=O)[C@@H](NC(=O)c4ccnn4C)C4CCCCC4)cc3C2)C(=O)N1 (stereo partly drawn)", "1 (yes)"),
]

Continue with the next compound.
INPUT: Hi there! Is IC50 for Cc1nonc1C(=O)N[C@H](C(=O)Nc1ccc2c(c1)CC(C(=O)NC1CCC(F)(F)CC1)(N1CC3(CC3)CNC1=O)C2)C1CCC(F)(F)CC1 (stereo partly drawn) below 0.08 µM, do you know?
OUTPUT: 1 (yes)

* * *

# TARGET_SYSTEM: human IL-17A / human IL-17RA (Homo sapiens (Human))
# ASSAY_OVERVIEW: Human IL-17A biochemical assay (HTRF, blocking of IL-17A binding to IL-17RA)
# ASSAY_CONTEXT: 0.4 nM IL-17A, 0.3 nM IL-17RA, max compound concentration 10 uM
pIC50 overview
Entry type: numeric. Quantity: pIC50, the -log10 of concentration in molar units.

Answered cases to consult:
# COMPOUND, READOUT_VALUE
records = [
    ("CNC(=O)C1(N2CC(C)(C)CNC2=O)Cc2ccc(NC(=O)[C@@H](NC(=O)c3ccnn3C)C3CCCCC3)cc2C1 (stereo partly drawn)", 7.59),
    ("Cc1nonc1C(=O)N[C@H](C(=O)Nc1ccc2c(c1)CC(C(=O)Nc1cncs1)(N1C[C@@H](C(C)C)NC1=O)C2)C(C1CC1)C1CC1 (stereo partly drawn)", 7.15),
    ("CNC(=O)C1(N2CC3(CC3)CNC2=O)Cc2ccc(NC(=O)[C@@H](NC(=O)c3ccnn3C)C3CCC(F)(F)CC3)cc2C1 (stereo partly drawn)", 6.97),
]

INPUT: State its pIC50 on human IL-17A / human IL-17RA (Homo sapiens (Human)): Cc1nonc1C(=O)N[C@H](C(=O)Nc1ccc2c(c1)CC(C(=O)NC1(c3ccccc3F)CC1)(N1CC3(CC3)CNC1=O)C2)C1CCC(F)(F)CC1 (stereo partly drawn)
OUTPUT: 6.93

INPUT: State its pIC50 on human IL-17A / human IL-17RA (Homo sapiens (Human)): Cc1nonc1C(=O)N[C@H](C(=O)Nc1ccc2c(c1)CC(C(=O)O)(N1CC3(CC3)CNC1=O)C2)C1CCC(F)(F)CC1 (stereo partly drawn)
OUTPUT: 7.35

INPUT: State its pIC50 on human IL-17A / human IL-17RA (Homo sapiens (Human)): CNC(=O)C1(N2C[C@@H](Cc3ccc(C)cc3)NC2=O)Cc2ccc(NC(=O)[C@@H](NC(=O)c3ccnn3C)C3CCCCC3)cc2C1 (stereo partly drawn)
OUTPUT: 7.62
